molecular target: GRK5 (Homo sapiens, UniProt P34947); test: GRK5 phosphorylation of light-activated rhodopsin; format: biochemical; conditions: read-out: % Inhibition (100 μM) of GRK5 phosphorylation of rhodopsin
Sequence (P34947 whole entry): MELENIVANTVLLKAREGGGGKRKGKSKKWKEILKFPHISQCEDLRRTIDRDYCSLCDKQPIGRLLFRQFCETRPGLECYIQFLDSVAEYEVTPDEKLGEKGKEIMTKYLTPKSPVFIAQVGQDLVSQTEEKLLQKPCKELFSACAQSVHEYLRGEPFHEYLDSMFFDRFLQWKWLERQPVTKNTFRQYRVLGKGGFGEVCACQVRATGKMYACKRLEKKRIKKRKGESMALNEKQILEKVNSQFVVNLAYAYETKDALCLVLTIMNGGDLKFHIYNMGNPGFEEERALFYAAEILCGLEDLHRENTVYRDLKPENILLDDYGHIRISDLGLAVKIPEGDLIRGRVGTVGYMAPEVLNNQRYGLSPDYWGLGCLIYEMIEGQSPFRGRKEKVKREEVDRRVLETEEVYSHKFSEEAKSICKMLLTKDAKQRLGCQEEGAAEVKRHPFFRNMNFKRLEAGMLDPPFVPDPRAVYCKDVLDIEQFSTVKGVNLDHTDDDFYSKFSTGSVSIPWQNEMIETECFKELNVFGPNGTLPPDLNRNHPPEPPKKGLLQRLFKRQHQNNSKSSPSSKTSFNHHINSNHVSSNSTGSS
Square brackets hold non-standard residues; d marks the D form. Peptide text beside a SMILES is read from it. Nle = CCCC[C@H](N)C(=O)O
Reported values of inhibition at 100 µM for individual entries
Answer with a number only, understood to be in %.

Consider the reported inhibition at 100 µM for these compounds:
{"columns": ["compound", "inhibition at 100 µM, %"],
 "data": [
  ["CCCC[C@H](NC(=O)[C@H](CO)NC(C)=O)C(=O)N[C@@H](Cc1ccccc1)C(=O)N[C@@H](Cc1ccccc1)C(=O)N[C@@H](CC(=O)O)C(=O)N[C@@H](CCCNC(=N)N)C(=O)N[C@@H](Cc1ccccc1)C(=O)N[C@@H](CC(C)C)C(=O)N[C@@H](CCC(N)=O)C(=O)N[C@@H](Cc1c[nH]c2ccccc12)C(=O)N[C@@H](CCCCN)C(=O)N[C@@H](Cc1c[nH]c2ccccc12)C(=O)N[C@@H](CC(C)C)C(=O)N[C@@H](CCC(=O)O)C(=O)N[C@@H](CCCNC(=N)N)C(N)=O [α9 (164–178)] (Ac-S[Nle]FFDRFLQWKWLER-NH2)", 89],
  ["CCCC[C@H](NC(=O)[C@H](CO)NC(C)=O)C(=O)N[C@@H](Cc1ccccc1)C(=O)N[C@@H](Cc1ccccc1)C(=O)N[C@@H](CC(=O)O)C(=O)N[C@@H](CCCNC(=N)N)C(=O)N[C@@H](Cc1ccccc1)C(=O)N[C@@H](CC(C)C)C(=O)N[C@@H](C)C(=O)N[C@@H](Cc1c[nH]c2ccccc12)C(=O)N[C@@H](CCCCN)C(=O)N[C@@H](Cc1c[nH]c2ccccc12)C(=O)N[C@@H](CC(C)C)C(=O)N[C@@H](CCC(=O)O)C(=O)N[C@@H](CCCNC(=N)N)C(N)=O [Peptide Q172A] (Ac-S[Nle]FFDRFLAWKWLER-NH2)", 95]
]}

Alright, here's another compound for you.
query: Enter recorded inhibition at 100 µM with GRK5 (Homo sapiens, UniProt P34947) for CCCC[C@H](NC(=O)[C@H](CO)NC(C)=O)C(=O)N[C@@H](Cc1ccccc1)C(=O)N[C@@H](Cc1ccccc1)C(=O)N[C@@H](CC(=O)O)C(=O)N[C@@H](CCCNC(=N)N)C(=O)N[C@@H](Cc1ccccc1)C(=O)N[C@@H](CC(C)C)C(=O)N[C@@H](CCC(N)=O)C(=O)N[C@@H](Cc1c[nH]c2ccccc12)C(=O)N[C@@H](CCCCN)C(=O)N[C@@H](Cc1c[nH]c2ccccc12)C(=O)N[C@@H](CC(C)C)C(N)=O [Peptide T2] (Ac-S[Nle]FFDRFLQWKWL-NH2) here.
result: 98

* * *

Target: GRK2 (Homo sapiens, UniProt P25098, S670A)
Sequence (P25098 1-689 S670A): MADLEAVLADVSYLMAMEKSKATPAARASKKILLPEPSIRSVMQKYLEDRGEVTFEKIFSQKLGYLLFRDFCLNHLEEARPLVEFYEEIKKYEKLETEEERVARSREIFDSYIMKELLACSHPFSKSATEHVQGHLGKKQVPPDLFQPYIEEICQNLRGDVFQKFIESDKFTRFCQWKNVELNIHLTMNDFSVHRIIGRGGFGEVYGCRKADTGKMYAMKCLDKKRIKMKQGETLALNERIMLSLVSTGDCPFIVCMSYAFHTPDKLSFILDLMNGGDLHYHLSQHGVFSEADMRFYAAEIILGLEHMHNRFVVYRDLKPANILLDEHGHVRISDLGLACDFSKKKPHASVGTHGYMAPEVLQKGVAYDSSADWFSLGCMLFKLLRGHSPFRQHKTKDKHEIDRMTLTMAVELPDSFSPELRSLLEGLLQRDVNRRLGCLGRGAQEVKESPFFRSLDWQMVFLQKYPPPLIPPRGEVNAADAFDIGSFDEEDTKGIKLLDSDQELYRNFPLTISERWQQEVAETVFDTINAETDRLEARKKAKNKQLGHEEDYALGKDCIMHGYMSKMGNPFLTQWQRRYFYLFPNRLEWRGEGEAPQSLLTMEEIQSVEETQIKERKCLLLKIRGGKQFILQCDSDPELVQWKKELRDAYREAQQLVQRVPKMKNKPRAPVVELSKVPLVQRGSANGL
Assay: GRK2 phosphorylation of tubulin
Type: biochemical
pIC50: −log10 of the molar value.
test-readout: pIC50

query: Retrieve pIC50 measured for Ac-PIGRLLFRQFC-NH2 [α3] and print it.
result: ~4.52
